Biological target: T1, cynomolgus DKK1 (cynomolgus monkey (Macaca fascicularis), UniProt A0A7N9IE82 32-266)
T1 construct: also called cyno DKK1; monkey DKK1 (Novartis)
T1 sequence: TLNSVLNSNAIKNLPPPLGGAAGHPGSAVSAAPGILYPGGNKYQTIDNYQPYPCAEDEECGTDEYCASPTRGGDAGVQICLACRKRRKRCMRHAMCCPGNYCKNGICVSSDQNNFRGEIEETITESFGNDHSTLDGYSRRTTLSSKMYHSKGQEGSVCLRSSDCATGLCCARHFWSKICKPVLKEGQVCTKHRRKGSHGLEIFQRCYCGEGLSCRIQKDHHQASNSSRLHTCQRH
Test: SPR (Biacore), DKK1 immobilised on CM5 chip, Fab as analyte
Kd values by entry
readout name: Kd (nM)

* MOR04470 (Fab, V domains shown, Fab with C-terminal FLAG and 6xHis tags) VH: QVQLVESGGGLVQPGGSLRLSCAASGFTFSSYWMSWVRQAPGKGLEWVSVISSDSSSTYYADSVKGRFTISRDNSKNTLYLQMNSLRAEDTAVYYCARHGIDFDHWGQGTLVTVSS VL: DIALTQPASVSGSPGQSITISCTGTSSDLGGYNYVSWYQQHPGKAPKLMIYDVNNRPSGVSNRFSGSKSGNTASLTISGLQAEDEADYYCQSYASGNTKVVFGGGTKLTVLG | 1.7
* MOR04455 (Fab, V domains shown, Fab with C-terminal FLAG and 6xHis tags) VH: QVQLVESGGGLVQPGGSLRLSCAASGFTFSSYGMSWVRQAPGKGLEWVSGISGSGSYTYYADSVKGRFTISRDNSKNTLYLQMNSLRAEDTAVYYCARHYMDHWGQGTLVTVSS VL: DIQMTQSPSSLSASVGDRVTITCRASQDISNYLHWYQQKPGKAPKLLIYGASNLQSGVPSRFSGSGSGTDFTLTISSLQPEDFAVYYCQQYDSIPMTFGQGTKVEIKR | 1.5
